Target: recombinant human PD-L1 (Homo sapiens, UniProt Q9NZQ7 19-238)
Sequence (Q9NZQ7 19-238): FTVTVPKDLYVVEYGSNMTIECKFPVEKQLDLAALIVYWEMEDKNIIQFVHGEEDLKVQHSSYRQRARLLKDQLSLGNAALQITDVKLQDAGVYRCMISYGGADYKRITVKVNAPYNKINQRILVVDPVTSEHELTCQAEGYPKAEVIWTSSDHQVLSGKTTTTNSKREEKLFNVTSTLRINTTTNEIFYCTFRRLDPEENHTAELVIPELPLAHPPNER
Assay: BLI; PD-L1 immobilized on AR probe; BLI: 1x PBS pH 7.4, aptamers 3-12 uM, 300 s association, 600 s dissociation, temperature not stated; EMSA: TBE-PAGE, binding buffer composition not given
Settings: protein: commercial; stem-loop
pKd: −log10 of the molar value.
Assay endpoint: pKd

binder="TGACACCGTACCTGCTCTCCGCGCGAAGCACGCCAGGGACTAT (structured_DNA, 5' amine (NH2)) [Apt13]" observed_result=~6.15
binder="ATAGTCCCTGGCGTGCTTGGTCGGCAGAGCAGGTACGGTGTCA (structured_DNA, 5' amine (NH2)) [Apt45]" observed_result=~6.73
binder="GTACCTGCTCTCCGCGCGAAGCACGCCAGGGACT (structured_DNA, 5' amine (NH2)) [Tr-Apt13]" observed_result=~6.00
